- System Under Test: EGFR del19/T790M (Homo sapiens (Human), UniProt P00533, DEL746-750/T790M)
- Sequence (P00533 other isoform, or with tags, fused parts or gaps T790M/del 1-668/del 746-750 limits assumed): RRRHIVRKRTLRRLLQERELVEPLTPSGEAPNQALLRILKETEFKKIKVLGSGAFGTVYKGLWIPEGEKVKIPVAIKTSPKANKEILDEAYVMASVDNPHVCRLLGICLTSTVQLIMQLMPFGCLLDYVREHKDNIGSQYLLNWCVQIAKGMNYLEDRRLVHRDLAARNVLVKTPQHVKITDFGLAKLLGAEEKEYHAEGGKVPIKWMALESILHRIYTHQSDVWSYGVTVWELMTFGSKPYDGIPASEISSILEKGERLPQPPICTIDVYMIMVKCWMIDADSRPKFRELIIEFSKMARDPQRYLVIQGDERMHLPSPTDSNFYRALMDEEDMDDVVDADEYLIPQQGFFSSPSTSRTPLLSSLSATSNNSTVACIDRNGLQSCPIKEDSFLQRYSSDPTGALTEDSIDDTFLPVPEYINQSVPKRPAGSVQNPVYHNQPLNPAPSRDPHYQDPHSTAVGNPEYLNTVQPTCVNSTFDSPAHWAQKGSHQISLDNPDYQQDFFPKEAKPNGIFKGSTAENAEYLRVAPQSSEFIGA
- Measurement Description: HTRF enzyme assay, EGFR del19/T790M mutant enzyme
- Measurement Parameters: recombinant enzyme, 37° C. 2 hours
Measure Name: IC50

The following compounds have reported results that may help.
COc1cc(N2CCC(N(C)C)CC2)ccc1Nc1ncc(Cl)c(Nc2cccc3c2N(S(C)(=O)=O)CC3)n1; < 1 nM
COc1cc(N2CCC(N3CCN(C)CC3)CC2)ccc1Nc1ncc(F)c(Nc2cccc3c2N(S(C)(=O)=O)CC3)n1; < 1 nM
COc1cc(N2CCC(N(C)C)CC2)ccc1Nc1ncc(Cl)c(Nc2cccc3c2N(S(C)(=O)=O)CCC3)n1; < 1 nM

Please look at the following compound next.
GET IC50 | system: EGFR del19/T790M (Homo sapiens (Human), UniProt P00533, DEL746-750/T790M) | item: COc1cc(N2CCC(N3CCN(C)CC3)CC2)ccc1Nc1ncc(C(=O)OC(C)C)c(Nc2cccc3c2N(S(C)(=O)=O)CC3)n1 60 nM

---

Let's look at some compounds and their measured pIC50.
- System Under Test: EGFR del19/T790M/C797S (Homo sapiens (Human), UniProt P00533, C797S/DEL746-750/T790M)
- Sequence (P00533 other isoform, or with tags, fused parts or gaps T790M/C797S/del 1-694/del 746-750 limits assumed): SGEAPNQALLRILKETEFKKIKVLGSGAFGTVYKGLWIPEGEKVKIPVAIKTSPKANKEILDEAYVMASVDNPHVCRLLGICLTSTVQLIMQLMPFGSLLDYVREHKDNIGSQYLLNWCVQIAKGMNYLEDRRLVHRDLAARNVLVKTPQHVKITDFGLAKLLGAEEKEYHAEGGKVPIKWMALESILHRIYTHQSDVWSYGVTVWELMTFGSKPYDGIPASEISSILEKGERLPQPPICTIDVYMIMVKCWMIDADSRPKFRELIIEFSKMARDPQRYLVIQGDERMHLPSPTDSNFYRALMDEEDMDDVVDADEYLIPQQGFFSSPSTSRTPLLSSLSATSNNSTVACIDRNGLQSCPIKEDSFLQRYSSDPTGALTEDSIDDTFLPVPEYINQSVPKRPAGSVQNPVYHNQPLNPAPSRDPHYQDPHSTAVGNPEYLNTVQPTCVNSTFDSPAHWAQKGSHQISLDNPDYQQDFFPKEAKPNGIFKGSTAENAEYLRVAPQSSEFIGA
- Measurement Description: HTRF enzyme assay, EGFR del19/T790M/C797S mutant enzyme
- Measurement Parameters: enzyme from SignalChem, 37° C. 2 hours
pIC50: −log10 of the molar value.

Please report pIC50 for the following compound: COc1cc(N2CCC(N(C)C)CC2)ccc1Nc1ncc(Cl)c(Nc2cccc3c2N(S(C)(=O)=O)CC3)n1 > 9.00

Please report pIC50 for the following compound: COc1cc(N2CCC(N3CCN(C)CC3)CC2)ccc1Nc1ncc(Cl)c(Nc2cccc3c2N(S(C)(=O)=O)CC3)n1 > 9.00

Please report pIC50 for the following compound: COc1cc(N2CCC(N3CCN(C)CC3)CC2)ccc1Nc1ncc(C)c(Nc2cccc3c2N(S(C)(=O)=O)CC3)n1 > 9.00

---

- System Under Test: EGFR del19/T790M (Homo sapiens (Human), UniProt P00533, DEL746-750/T790M)
- Measurement Description: HTRF enzyme assay, EGFR del19/T790M mutant enzyme
- Assay type: biochemical
- Measurement Parameters: recombinant enzyme, 37° C. 2 hours
Measure Name: IC50

The following compounds have reported results that may help.
COc1cc(N2CCC(N3CCN(C)CC3)CC2)ccc1Nc1ncc(C)c(Nc2cccc3c2N(S(C)(=O)=O)CC3)n1; < 1 nM
COC(=O)c1cnc(Nc2ccc(N3CCC(N4CCN(C)CC4)CC3)cc2OC)nc1Nc1cccc2c1N(S(C)(=O)=O)CC2; 2 nM
COc1cc(N2CCC(N3CCN(C)CC3)CC2)ccc1Nc1ncc(C(F)(F)F)c(Nc2cccc3c2N(S(C)(=O)=O)CC3)n1; < 1 nM
COc1cc(N2CCC(N3CCN(C)CC3)CC2)ccc1Nc1ncc(Cl)c(Nc2cccc3c2N(S(C)(=O)=O)CCC3)n1; < 1 nM
COc1cc(N2CCC(N3CCN(C)CC3)CC2)ccc1Nc1ncc(Cl)c(Nc2cccc3c2N(S(C)(=O)=O)CC3)n1; < 1 nM

Please look at the following compound next.
GET IC50 | system: EGFR del19/T790M (Homo sapiens (Human), UniProt P00533, DEL746-750/T790M) | item: COc1cc(N(C)CCN(C)C)ccc1Nc1ncc(Cl)c(Nc2cccc3c2N(S(C)(=O)=O)CCC3)n1 1 nM
